Biological target: Human 5-HT2C receptor (Homo sapiens)
Construct: expressed in transfected cells; host or cells: CHO cells
Sequence (P28335 33-458): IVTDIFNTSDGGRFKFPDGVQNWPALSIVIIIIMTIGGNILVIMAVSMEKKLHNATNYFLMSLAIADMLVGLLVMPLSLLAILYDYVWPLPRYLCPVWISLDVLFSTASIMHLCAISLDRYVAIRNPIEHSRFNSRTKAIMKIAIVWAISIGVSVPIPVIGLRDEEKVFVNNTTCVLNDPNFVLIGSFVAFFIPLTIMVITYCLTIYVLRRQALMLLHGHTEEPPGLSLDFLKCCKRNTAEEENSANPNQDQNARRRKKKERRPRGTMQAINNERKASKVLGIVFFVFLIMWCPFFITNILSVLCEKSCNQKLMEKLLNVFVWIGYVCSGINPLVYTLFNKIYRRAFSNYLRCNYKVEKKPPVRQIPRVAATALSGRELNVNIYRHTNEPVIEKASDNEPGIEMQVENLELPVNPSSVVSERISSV
Assay: 5-HT2C receptor binding
Conditions: [3H]mesulergine, transfected CHO cell membranes; read-out: Serotonin Receptor Binding 5HT2C (IC50)
pIC50: −log10 of the molar value.
pIC50 reference
endpoint-label: pIC50

>>> df
                                   compound  numeric_result
0  CC(O)c1nn(CCCN2CCN(c3cccc(Cl)c3)CC2)c(=O)n1CCOc1ccccc1 (racemic) [(RS)-OH, reference compound]            7.34
1  C[C@@H](O)c1nn(CCCN2CCN(c3cccc(Cl)c3)CC2)c(=O)n1CCOc1ccccc1 [(R)-OH, (R)-hydroxynefazodone]            7.48
2  C[C@H](O)c1nn(CCCN2CCN(c3cccc(Cl)c3)CC2)c(=O)n1CCOc1ccccc1 [(S)-OH]            7.47

----------
pIC50 reference
biological target: α1 Receptor; test: α1 receptor binding; details: read-out: α1 Receptor Binding Alpha1 (IC50)
pIC50: −log10 of the molar value.
endpoint-label: pIC50

                                   molecule  test_target  endpoint_label  numeric_result
0  CC(O)c1nn(CCCN2CCN(c3cccc(Cl)c3)CC2)c(=O)n1CCOc1ccccc1 (racemic) [(RS)-OH, reference compound]  α1 Receptor           pIC50            6.42
1  C[C@H](O)c1nn(CCCN2CCN(c3cccc(Cl)c3)CC2)c(=O)n1CCOc1ccccc1 [(S)-OH]  α1 Receptor           pIC50            6.38
2  CCc1nn(CCCN2CCN(c3cccc(Cl)c3)CC2)c(=O)n1CCOc1ccccc1 [Nefazodone]  α1 Receptor           pIC50            6.51
3  C[C@@H](O)c1nn(CCCN2CCN(c3cccc(Cl)c3)CC2)c(=O)n1CCOc1ccccc1 [(R)-OH, (R)-hydroxynefazodone]  α1 Receptor           pIC50            6.44

----------
pIC50 reference
target: Human D2 receptor (Homo sapiens); experiment: Dopamine D2 receptor binding; settings: [3H]spiperone, transfected A9L cell membranes
Sequence (P14416 whole entry): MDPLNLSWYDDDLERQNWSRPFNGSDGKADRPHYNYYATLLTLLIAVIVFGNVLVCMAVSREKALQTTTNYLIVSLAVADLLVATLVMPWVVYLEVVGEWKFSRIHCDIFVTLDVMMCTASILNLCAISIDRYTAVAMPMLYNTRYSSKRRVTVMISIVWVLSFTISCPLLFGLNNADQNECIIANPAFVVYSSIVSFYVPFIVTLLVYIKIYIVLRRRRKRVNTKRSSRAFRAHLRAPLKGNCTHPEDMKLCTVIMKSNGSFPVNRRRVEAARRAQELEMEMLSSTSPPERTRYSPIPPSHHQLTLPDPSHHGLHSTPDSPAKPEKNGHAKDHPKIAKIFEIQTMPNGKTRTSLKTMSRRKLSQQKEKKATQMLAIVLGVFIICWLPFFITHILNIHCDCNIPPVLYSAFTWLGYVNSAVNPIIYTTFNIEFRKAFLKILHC
pIC50: −log10 of the molar value.
endpoint-label: pIC50

                                   molecule                       test_target  numeric_result
0  C[C@H](O)c1nn(CCCN2CCN(c3cccc(Cl)c3)CC2)c(=O)n1CCOc1ccccc1 [(S)-OH]  Human D2 receptor (Homo sapiens)            6.10
1  CC(O)c1nn(CCCN2CCN(c3cccc(Cl)c3)CC2)c(=O)n1CCOc1ccccc1 (racemic) [(RS)-OH, reference compound]  Human D2 receptor (Homo sapiens)            5.85
2  CCc1nn(CCCN2CCN(c3cccc(Cl)c3)CC2)c(=O)n1CCOc1ccccc1  Human D2 receptor (Homo sapiens)            6.15
3  C[C@@H](O)c1nn(CCCN2CCN(c3cccc(Cl)c3)CC2)c(=O)n1CCOc1ccccc1 [(R)-OH, (R)-hydroxynefazodone]  Human D2 receptor (Homo sapiens)            5.77
